Entries with reported pIC50 on Cannabinoid receptor 1 (Homo sapiens, UniProt P21554)
Sequence (P21554 whole entry): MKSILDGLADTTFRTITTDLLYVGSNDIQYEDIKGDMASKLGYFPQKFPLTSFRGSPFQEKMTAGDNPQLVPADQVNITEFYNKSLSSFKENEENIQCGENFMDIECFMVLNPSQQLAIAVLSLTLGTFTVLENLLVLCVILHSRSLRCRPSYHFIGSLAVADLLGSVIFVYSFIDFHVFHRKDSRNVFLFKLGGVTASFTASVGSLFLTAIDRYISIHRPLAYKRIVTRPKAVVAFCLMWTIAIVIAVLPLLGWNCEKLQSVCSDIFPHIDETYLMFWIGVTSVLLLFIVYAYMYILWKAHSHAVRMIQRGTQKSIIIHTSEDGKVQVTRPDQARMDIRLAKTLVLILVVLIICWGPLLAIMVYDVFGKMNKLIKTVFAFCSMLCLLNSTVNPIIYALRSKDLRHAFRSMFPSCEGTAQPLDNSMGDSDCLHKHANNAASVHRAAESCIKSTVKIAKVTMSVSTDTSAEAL
Answers are plain numbers, as −log10 of the molar value.

Consider the reported pIC50 for these compounds:
> print(dat)
                                smiles.text  property.name  reported
1  COc1ccc(-n2c(-c3ccc(Cl)cc3)nn(C(=O)Nc3ccc(C)cc3)c2=O)cc1          pIC50      5.07
2  COc1ccc(-n2c(-c3ccc(Cl)cc3)nn(C(=O)NC3CCCCC3)c2=O)cc1          pIC50      6.41
3  Cc1ccc(Cn2c(-c3ccc(C)cc3)nn(C(=O)Nc3ccc(Cl)cc3)c2=O)cc1          pIC50      5.43
4  COc1ccc(-c2nn(C(=O)Nc3ccc(C)cc3)c(=O)n2-c2ccc(Cl)cc2)cc1          pIC50      5.64
5  Cc1ccc(-c2nn(C(=O)NC3CCCCC3)c(=O)n2-c2ccc(Cl)cc2)cc1          pIC50      5.68

Record pIC50 per entry; entries follow.
1. Cc1ccc(-n2c(-c3ccc(Cl)cc3)nn(C(=O)NC3CCCCC3)c2=O)cc1
2. Cc1ccc(NC(=O)n2nc(-c3ccc(C)cc3)n(-c3ccc(Cl)cc3)c2=O)cc1
3. Cc1ccc(Cn2c(-c3ccc(C)cc3)nn(C(=O)NC3CCCCC3)c2=O)cc1
4. COc1ccc(-c2nn(C(=O)NC3CCCCC3)c(=O)n2-c2ccc(Cl)cc2)cc1
5. COc1ccc(-c2nn(C(=O)Nc3ccc(Cl)cc3)c(=O)n2-c2ccc(C)cc2)cc1
6. COc1ccc(-c2nn(C(=O)NC3CCCCC3)c(=O)n2-c2ccc(C)cc2)cc1

Completion:
1: 6.65; 2: 6.02; 3: 4.75; 4: 6.06; 5: 5.33; 6: 5.74

Cited source for all entries: ChEMBL document CHEMBL3120110
